# Tested on: RARg homodimer (NR concentration 270 nM)
# Protocol Summary: PBM binding z-score (relative to random genomic background probes); higher = stronger binding; sequences stand for … in GC…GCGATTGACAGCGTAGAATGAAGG
Form field: PBM binding z-score (one value per entry).
Please give the numeric answer without any surrounding text.

Some sequences with recorded PBM binding z-score:
Form field: reported PBM binding z-score of CCGAGTAGGTTACGAGAGGGCATTCAGTGCGAAT 1.42

# iterate: TCGAGTAGGTTACGGGGGCATCCAGGGATGAAGA 2.37

Follow-up entry: CGTCGAAGGTCAATGCTAGGTCAGTGAAAGCATT 6.84

***
Any idea what PBM binding z-score was measured for CCTCCAAGGTCATAGGAGGTCAGTGAAGACAGAT ? 7.01

Continue with CCCAGTAGGTTACGAGGGGGCATTCAGTGCGAAT 2.76

Also CGAACTAGGTCAAAGGACAGTGGAAGGCGACGTA ? 4.31

Next sequence up: TCGATTAGGTTACGGGGGCATTCAGGGATGAAGA 3.07

###

# Tested on: RARa homodimer (NR concentration 270 nM)
# Protocol Summary: PBM binding z-score (relative to random genomic background probes); higher = stronger binding; sequences stand for … in GC…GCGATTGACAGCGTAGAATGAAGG
Mark condition met for reported PBM binding z-score of 0.8 or greater; mark condition not met for anything smaller.

Some solved entries appear below for comparison.
Is PBM binding z-score for CTATGGAGGTTAAGGGGGTCATTCAGTTTGAAAG at or above 0.8? condition met

Then TCGAGTAGGTTACGGTGGCATTCAGGGATGAAGA ? condition not met

Thanks! And CGTCCAAGGTCAAAGGTCAGCGAAGAGATGACGG ? condition met

One more sequence: AGTCAAAGGTCACTAGGTAACGTAAGATTCAGCT condition met

More entries:
Would you say GGAACGGGGGCAAGTTGATAGCAGAGTTTGATGG shows PBM binding z-score at minimum 0.8? condition met

Also check CGTACTAGGTCACCAGGACAGTGAAGAGGTTGGA condition not met

Quick one: GATACAGGGTCAAGGCCAGAATACGCGTATTGAT condition met

Next sequence: AGTCAAAGTTCAGGACGAGGTACCGTAAAGCACG condition not met

Moving on to the next sequence: CGGAGTAGGTTACGAGGGGGCATTCAGTGCGAAT condition not met

How about ATATGTAGGTTAAGGGTCATGCAGGTTGGTTCGC ? condition met

Also check TCTCGGAGGACACGAAACGTCAGAGCTCGACATC condition not met

Consider next the sequence TTATCAAGGTGAAAGGTCGTTGATGCACGCCTTG in the same way. condition not met

###

Each entry below lists one item and its recorded PBM binding z-score value.
# System: RARg:RXRa (NR concentration 270 nM, RXRa partner concentration 90 nM)
# Protocol Summary: PBM binding z-score (relative to random genomic background probes); higher = stronger binding; sequences stand for … in GC…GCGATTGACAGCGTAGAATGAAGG
Form rule: numeric answer, no unit written next to it.

Sample records with PBM binding z-score:
Value lookup for PBM binding z-score; key = CGTCAAAGTTCAAGGCAACGTAACAGAAAGCAGC 5.02

Param item: CAAACTAGGCCAAGGTCAAAGTCGGTTTGTGCCA 4.2

Continue with TAGCCTAAGTCATGGGCCAGTATACCACGCGAAC 0.0528

Now the same for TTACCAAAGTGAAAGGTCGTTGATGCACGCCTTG 1.64

Another sequence: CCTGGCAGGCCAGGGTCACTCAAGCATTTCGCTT 3.49

Now the sequence CTCGAAAGGTCGGTTGAGGTCAGTATACGGATAA 4.95

Please answer likewise for TCGAGTAGGTGACGGGGGCATTCAGGGATGAAGA 2.59

Can you check CGAACTAGGTCACCAGAACAGTGAAGAGGTTGGA next? 4.44

Continuing:
Endpoint output: PBM binding z-score of CGTCCAAGGTCATAGGAGGTCACTGAAGACAGAT . Value? 7.13

# repeat for CCGAGTAGGTTACGAGGGGGCCTTCAGTGCGAAT 2.15

Moving on to the next sequence: CGTCCAAGGTCAGAGAGGTCAGTGTATGCCGAGT 6.1

###

# System: RARg homodimer (NR concentration 270 nM)
# Protocol Summary: PBM binding z-score (relative to random genomic background probes); higher = stronger binding; sequences stand for … in GC…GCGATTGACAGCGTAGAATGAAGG
Reported PBM binding z-score is given for each of the following sequences.

Below are worked cases with known answers.
Would you mind telling me what PBM binding z-score value was observed for CGTCCAAGGTCAATGCGAGGTCAGTGAAAGCATT ? 6.95

// query: GATACAGGGTGAGCTAGAGGCCAGAGTATGGAAA 0.586

Continuing:
# PBM binding z-score lookup, item TCTCGGAGGTCACGAAGGTCAGAGCTTTCCAGAG 8.12

Also need TCGAGTAGGTAACGGGGGCATTCAGGGATGAAGA , thanks. 1.09

Same lookup for CTACGTAGGTTAAGGGGGTCATTCAGTTTGAAAG , please. 4.1

One more sequence: ATATGTAGGTTAGGATCATTCAGAAAGTAGGGAA 0.675

Likewise for CCGAGTATGTTACGAGGGGGCATTCAGTGCGAAT ? 1.26

Follow-up item: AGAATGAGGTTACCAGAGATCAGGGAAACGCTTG 1.8

Do the same for ATCTCTAGGTAAAGTTCATTGAAAGATCGATAGA please 3.16

###

Measured PBM binding z-score of individual entries
# System: RARb:RXRa (NR concentration 270 nM, RXRa partner concentration 90 nM)
# Protocol Summary: PBM binding z-score (relative to random genomic background probes); higher = stronger binding; sequences stand for … in GC…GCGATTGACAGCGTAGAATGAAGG
// no unit string in output, number only

Reference set (4 entries):
# lookup: PBM binding z-score of TCGAGTAGGTTGCGGGGGCATTCAGGGATGAAGA 1.91

Do the same for TCGAGTAGGTTACGGGGACATTCAGGGATGAAGA please 1.43

Query CGAACTAGGTCAAACGACAGTGAAAGGCGACGTA next 3.7

Entry to check: TCGAGTAGGTTACGGAGGCATTCAGGGATGAAGA 0.731

---
Query (sequence): CGTCCAAGGTCATGGGAGGTCAGTGAAGACAGAT ; field requested: PBM binding z-score 5.61

Request: CCTAGCAGGCGAGGGTCACTCAAGCATTTCGCTT 2.29

What do we get for ATATGTAGGTTATGGTCATTCAGAAAGTAGGGAA ? 1.4

CTATGTAGGTTAAGGGCGTCATTCAGTTTGAAAG , same question. 1.27

Another: AGTCGGAGGACAAAGGTCAGAGCTACGCCAGTGA 4.31

Again, but for TCTAGCTGGTCAAAGGTCACACACTCGAAATGCG 4.89

Ok, now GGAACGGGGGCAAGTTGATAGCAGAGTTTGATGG 3.54

And what about the sequence CATACAGGGTCATCTAGGCCAGAGTAGGGACGGC ? 4.3

###

Catalogue of sequences with associated PBM binding z-score
# Test system: VDR:RXRa (NR concentration 270 nM, RXRa partner concentration 90 nM)
# Protocol Summary: PBM binding z-score (relative to random genomic background probes); higher = stronger binding; sequences stand for … in GC…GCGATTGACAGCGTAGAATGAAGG
Response field accepts a number only; no unit should be typed.

Known PBM binding z-score results, listed for orientation:
Dear colleague, I am looking for the recorded PBM binding z-score of the following sequence: CCGAGTAGGTTACGAGGGGGAATTCAGTGCGAAT 1.7

Entry to check: ATCGAAAGGTCGTCGAGGTGAGTATACACCGTTT 5.7

Do the same for AATACAGGGTGATCGTAGGCCAGAGTACGCACAG please 0.0765

New cases:
# input sequence: CTCCAAAGGTCGGTTGAGGTGAGTATACGGATAA ; wanted: its PBM binding z-score 2.42

Also check ATCGAATGGTCGAGGTGAGTATAGAGAAAGGGAA -0.226

Please give the result for ATCGAATGGTCGTGAGGTGAGTATACAGAAAGGC too. -0.0757

What do you get for CATACAGGGACAGCTAGGCCAGAGTAGGGACGGC ? -0.582

Okay, and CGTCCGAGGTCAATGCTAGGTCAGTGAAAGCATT ? 5.63

Entry to check: CCGACTGGGTCAAAGGTTACCATACTCAGTACGA 4.41

Same again, this time with TCATATAGGTCAAAGGTGAAAGTCGGTGTGGTAA 4.65

Also need CAGCCTAGGTGAGGGCCAGTATAGGAGGAACGTT , thanks. -0.634

Can you handle CGTCCAAGGTAAGAGAGGTCAGTGAATGCCGAGT next? 4

Reference source for all entries: the supplement of paper PMC6555819
